# measuredTarget: MDM2 (Homo sapiens)
# Sequence (Q00987 whole entry): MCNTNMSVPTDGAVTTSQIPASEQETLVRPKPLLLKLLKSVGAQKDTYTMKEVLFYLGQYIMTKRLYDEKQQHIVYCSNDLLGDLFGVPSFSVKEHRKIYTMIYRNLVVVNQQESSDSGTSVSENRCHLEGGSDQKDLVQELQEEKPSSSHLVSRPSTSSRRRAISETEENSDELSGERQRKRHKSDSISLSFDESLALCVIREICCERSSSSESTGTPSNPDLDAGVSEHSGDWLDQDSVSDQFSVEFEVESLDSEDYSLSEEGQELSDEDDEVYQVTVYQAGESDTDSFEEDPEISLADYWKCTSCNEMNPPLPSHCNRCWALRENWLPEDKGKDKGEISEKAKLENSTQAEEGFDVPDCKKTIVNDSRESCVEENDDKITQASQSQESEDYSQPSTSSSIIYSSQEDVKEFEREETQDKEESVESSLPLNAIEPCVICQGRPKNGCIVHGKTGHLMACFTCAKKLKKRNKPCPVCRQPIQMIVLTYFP
# testSummary: MDM2 binding screen: displacement of fluorescent p53 peptide probe FP53 (fluorescence polarization)
# measurementParameters: Acid 14; replicate; crude macrocycle reactions
Numbered stars: 1 amine (or outer) side, 2 acyl side, 3 side chain; on linkers, the order of the positions; unused ones are H or OH. Bridge positions count the residues as written; N and C are the ends. Square brackets hold non-standard residues; d marks the D form. Peptide text beside a SMILES is read from it. * marks the point of attachment. 2Thenoyl(5-Cl) = O=C(c1ccc(Cl)s1)*; Cysteamide = C(CS[*:3])N[*:1]; Api = NC1(C(=O)O)CCNCC1; Dap = NC[C@H](N)C(=O)O; Mpa = O=C(O)CCS
Respond with t for fraction fluorescent probe displaced, Replicate values of 0.1 and above, f for values below.

Before answering, review these 3 worked examples.
1. O=C1CCSSCCNC(=O)[C@H](CNC(=O)c2ccc(Cl)s2)NC(=O)c2cccc(c2)CNC(=O)[C@H](Cc2c[nH]c3ccccc23)N1 = t
2. O=C1CCSSCCNC(=O)[C@@H]2CCCN2C(=O)C2(CCN(C(=O)c3ccc(Cl)s3)CC2)NC(=O)[C@H](Cc2c[nH]c3ccccc23)N1 [X W D6 B1 Acid 14] ([Mpa]W[Api](2Thenoyl(5-Cl))P-Cysteamide; disulfide 1-C) = t
3. O=C1CCSSCCNC(=O)[C@H](Cc2ccccc2)NC(=O)[C@@H]2CCCN2C(=O)[C@H](CNC(=O)c2ccc(Cl)s2)N1 [X D3 B1 F Acid 14] ([Mpa][Dap](2Thenoyl(5-Cl))PF-Cysteamide; disulfide 1-C) = f

Is fraction fluorescent probe displaced, Replicate at least 0.1? Consider O=C1CCSSCCNC(=O)[C@H]2CCCN(C2)C(=O)[C@H](Cc2c[nH]c3ccccc23)NC(=O)[C@H](CNC(=O)c2ccc(Cl)s2)N1
f

src = paper PMC9250534
